# Test system: OVCAR-8
# RUN DESCRIPTION: NCI tumour cell line growth inhibition, 48 h
Calls of active or inactive are those of the source. Cut-off read from the data, not from the text of the source: active = GI50 up to about 1.1 µM and inactive = higher.
Please reply with one of these outcomes: active, inactive

Answered cases to consult:
{"COMPOUND": "Cc1cc(OCc2nnc3n2S(=O)(=O)c2ccccc2N3C)ccc1Cl", "TARGET ENTITY": "OVCAR-8", "LABEL CLASS": "inactive"}
{"COMPOUND": "O=C(CCNC(=O)OCc1ccccc1)OCCCNC(=O)OCc1ccccc1", "TARGET ENTITY": "OVCAR-8", "LABEL CLASS": "inactive"}
{"COMPOUND": "CN(CCCN1C(=O)c2cccc3cc([N+](=O)[O-])cc(c23)C1=O)CCN(C)CCCN1C(=O)c2cccc3cc([N+](=O)[O-])cc(c23)C1=O", "TARGET ENTITY": "OVCAR-8", "LABEL CLASS": "inactive"}

What did this assay record as the result for `O=C1CCC(=O)N2CCCCN12` ? inactive

What did this assay record as the result for `CCCCCCCCCCCCSC(=S)c1c(C)[nH]n(CCCCCCCCCCCC)c1=O` ? inactive

What did this assay record as the result for `Cc1c(-c2ccccc2)c(=O)oc2ccc(Cl)cc12` ? inactive

What did this assay record as the result for `CC(C)(C)OC(=O)NC(C)(C)C(=O)NCCC(=O)O` ? inactive

What did this assay record as the result for `CC(C)c1ccccc1NC(=O)CCc1n[nH]c(=S)o1` ? inactive

* * *

# System: Hs-578T
# RUN DESCRIPTION: NCI tumour cell line growth inhibition, 48 h
Active and inactive are the calls of the source. Rule as the data show it: active = GI50 up to about 1.1 µM and inactive = higher.
Please reply with one of these outcomes: t = active, f = inactive

Answered cases to consult:
{"COMPOUND": "CC(C)(C)OC(=O)NC(C)(C)C(=O)NCCC(=O)O", "LABEL CLASS": "f"}
{"COMPOUND": "S=C1NCCN1C(=S)NC1CCCCC1", "LABEL CLASS": "f"}
{"COMPOUND": "Cc1nc2ccc(S(=O)(=O)Nc3ccccc3)cc2c(=O)n1NC(=O)CNc1ccccc1", "LABEL CLASS": "f"}
{"COMPOUND": "c1ccc2c[n+](Cc3ccnc4ccccc34)ccc2c1", "LABEL CLASS": "f"}
{"COMPOUND": "Cc1cccc(NC(=O)CC(=O)N2N=C(N3c4ccccc4Sc4ccccc43)CC2c2ccccc2)c1 (stereo not given)", "LABEL CLASS": "f"}

What did this assay record as the result for `C=CC(C)(C)C(=C)C(=O)Nc1ccccc1I` ? f

What did this assay record as the result for CC1=CC2C(O1)C1C(=O)C=CC(=O)C1=CC2[N+](=O)[O-] (stereo not given) ? f

What did this assay record as the result for `S=C(N1CCN(c2cccc(Cl)c2)CC1)N1CCN(c2cccc(Cl)c2)CC1` ? f

What did this assay record as the result for `COc1ccc2c[n+](C)c3c4cc(OC)c(OC)cc4ccc3c2c1` ? f

* * *

Each entry below carries its reported GI50.
# Test system: DU-145
# RUN DESCRIPTION: NCI tumour cell line growth inhibition, 48 h
Activity calls are given as the source filed them. Rule as the data show it: active = GI50 up to about 1.1 µM and inactive = higher.

{"COMPOUND": "CN(C(=O)Cc1cccc(N=C=S)c1)[C@H]1CCCC[C@@H]1N1CCCC1", "TARGET ENTITY": "DU-145", "GI50": "14.6 µM (inactive)"}

Short answer for `CC(C)[C@H]1NC(=O)[C@H]2N=C(O[C@@H]2C)[C@@H]2CCCN2C(=O)[C@H](Cc2ccccc2)NC(=O)[C@@H]2CSC(=N2)[C@@H](Cc2ccccc2)NC(=O)[C@@H]2CSC1=N2` : GI50 was > 100 µM (inactive)

Short answer for CC(=O)C(CN1CCCCC1)C(c1ccccc1)c1c(O)c2ccccc2oc1=O (centres undefined) : GI50 was > 100 µM (inactive)

Short answer for `S=C1NCCN1C(=S)NC1CCCCC1` : GI50 was 49.8 µM (inactive)
